- assay-remarks: soluble on expression in E. coli; label from the status in PepcDB or PDB records
endpoint-name: soluble on expression in E. coli

sequence_data=MSLDKEYRITLLHNVAHYGHAEATRILLAAGARVNAVNGEGNTPLFAAVHEGHDDVARILLDAGADVTIANSYWYTPLREACRRGNTGMVRLLLEKGADVNITDNKGFTPLHAAVSAEALEAATLILDSGADINIAGRYGDTPLHYAVGLGYEEFVRLFLARGADPTIRNDRGLTPRQLAEERGFASIVELFRNWGKNTEGHHHHHH endpoint_name="soluble on expression in E. coli" reading=soluble
sequence_data=MSLHDKQELSSKSNLNNQKGYLDNEGANSNYESKKQSILSELNQLLKQTTNSLKEAKNTTDNLNASNEANKVVEAVINAVNLISSAADQVKSATKNMHDLAQMAEIDLEKIKNSSDKAIFASNLAKEAYSLTKAAEQNMQKLYKEQQKISESESESDYSDSAEIKQAKEAVEIAWKATVEAKDKLIDVENTVKETLDKIKTETTNNTKLADIKEAAELVLQIAKNAKEIVQEVVALLNTEGHHHHHH endpoint_name="soluble on expression in E. coli" reading=soluble
sequence_data=MPQQTQTSAEKRCMVTKRIMLKLPDISAASLIPASIEASPAQVLGPASLAGIFPRGVRVYLTDTGAASQEKLVDAATHLRNLGYEPVPHLAARRIPSRVEFEEQVKRLAGEADVTDVLVVGGGVDRPAGPFASSMDMLSSGIFDRYGIKKIAIAGHPEGSPDFSEETAIAALRLKRDFGERSDAAMRIVTQFGFDPARFIAWAEGLAASGIDLPVHIGVSGPAKITTLLKYAALCGVGNSIAYLKKNALSLTTLARGHSPDSIVGPIERHWQANPQGPIRQIHVFPFGGLQNSADWLVSRGSWQTRDAGRPAPADSMAG endpoint_name="soluble on expression in E. coli" reading="not soluble"
sequence_data=MARINRISITLCALLFTTLPLTPMAHASKQARESSATTHITKKADKKKSTATTKKTQKTAKKAASKSTTKSKTASSVKKSSITASKNAKTRSKHTVNKTASASLTEKCTKRKGYKSHCVKVKNAASGTLADAHKAKVQKATKVAMNKLMQQIGKPYRWGGSSPRTGFDCSGLVYYAYKDLVKIRIPRTANEMYHLRDAAPIERSELKNGDLVFFRTQGRGTADHVGVYVGNGKFIQSPRTGQEIQITSLSEDYWQRHYVGARRVMTPKTLR endpoint_name="soluble on expression in E. coli" reading=soluble
sequence_data=MGSSHHHHHHGKTIFVIVPTNEEQVAFLEALAKQDELNFDWQNPPTEPGQPVVILIPSDMVEWFLEMLKAKGIPFTVYVEEGGSENLYFQGGGGGGYCAPTGRGADPKFYTPDAARKRDEQDKSYPVPKKLLKVRFLSDVGNTMPIAFVPLQREVEVLVGEPALAFYSAYNRSNRTLLGVSSYTIAPPEVTNYLNKIQCFCFEEQRFKPHELVEMPVFFYIDRDFLNDSMVNWLDEVIVNYTFFNLEKTKDYIFRPNAR endpoint_name="soluble on expression in E. coli" reading="not soluble"
sequence_data=SLVVAIDPGHGGQDSGAVGPTGKLEKNVTLAIGRELARQINATPGMKAYMTRDSDVFIPLPMRAQRARAAKADIFISIHADAADNRAATGSSVYVLSTRGASSQRARWLADKENAADLVGGVRLQKAEPTLANVLLDLAQSGYMKASEDAADHVLGSLKRVANNHKSEVEHANFAVLRTSDMPAMLVETAFISNAYEERRLVDPAFQRQLAAAVLEGVITFFTNQPPPGTLFALRAQAEPATTGGSVITSTH endpoint_name="soluble on expression in E. coli" reading="not soluble"
